Just for reference, patent US11648254B2 is where these values come from.

Measurement notes: Metabolic (microsomal) stability assay
Format: in vitro ADME
Conditions used: mouse liver microsomes, T1/2; read-out: DMPK-invitro-metabolic Stability (Mouse T1/2)
Hi! Could you tag entries with half-life below 2 h as 1.0, and those at or above as 0.0? Much appreciated.

### Prompt Determine if C[C@@H](Nc1ncnc2nc(Cl)c(C3(C#N)CC3)cc12)c1cccc(C(F)(F)[C@@H](C)O)c1 shows half-life strictly lower than 2 h.
### Response 0.0

### Prompt Determine if Cc1nc(N[C@H](C)c2cccc(C(F)(F)[C@@H](C)O)c2)c2cc(C3(C#N)CC3)c(Cl)nc2n1 shows half-life strictly lower than 2 h.
### Response 1.0

### Prompt Determine if COc1nc2ncnc(N[C@H](C)c3cccc(C(F)(F)[C@H](C)O)c3F)c2cc1C1(C#N)CC1 shows half-life strictly lower than 2 h.
### Response 0.0

### Prompt Determine if COc1nc2nc(C)nc(N[C@H](C)c3cccc(C(F)(F)[C@@H](C)O)c3)c2cc1C1(C#N)CC1 shows half-life strictly lower than 2 h.
### Response 1.0

### Prompt Determine if C[C@@H](Nc1ncnc2nc(Cl)c(C3(C#N)CC3)cc12)c1cccc(C(F)(F)CO)c1F shows half-life strictly lower than 2 h.
### Response 1.0

### Prompt Determine if COc1nc2nc(C)nc(N[C@H](C)c3cccc(C(F)(F)[C@H](C)O)c3F)c2cc1C1(C#N)CC1 shows half-life strictly lower than 2 h.
### Response 1.0

### Prompt Determine if Cc1nc(N[C@H](C)c2cccc(C(F)(F)[C@H](C)O)c2)c2cc(C3(C#N)CC3)c(Cl)nc2n1 shows half-life strictly lower than 2 h.
### Response 1.0
